study_target: UniProt Q8NER1
protocol_notes: Antagonist activity against human TRPV1 expressed in CHO cells assessed as inhibition of pH-induced channel activation by FLIPR assay
Type: cell-based
quantity_name: Ki (nM)

CC(C(=O)NCc1ccc(C(F)(F)F)nc1-c1ccc(F)cc1)c1ccc(NS(C)(=O)=O)c(F)c1 (stereo unspecified) = 131

* * *

study_target: Transient receptor potential cation channel subfamily V member 1 (Homo sapiens, UniProt Q8NER1)
Sequence (Q8NER1 whole entry): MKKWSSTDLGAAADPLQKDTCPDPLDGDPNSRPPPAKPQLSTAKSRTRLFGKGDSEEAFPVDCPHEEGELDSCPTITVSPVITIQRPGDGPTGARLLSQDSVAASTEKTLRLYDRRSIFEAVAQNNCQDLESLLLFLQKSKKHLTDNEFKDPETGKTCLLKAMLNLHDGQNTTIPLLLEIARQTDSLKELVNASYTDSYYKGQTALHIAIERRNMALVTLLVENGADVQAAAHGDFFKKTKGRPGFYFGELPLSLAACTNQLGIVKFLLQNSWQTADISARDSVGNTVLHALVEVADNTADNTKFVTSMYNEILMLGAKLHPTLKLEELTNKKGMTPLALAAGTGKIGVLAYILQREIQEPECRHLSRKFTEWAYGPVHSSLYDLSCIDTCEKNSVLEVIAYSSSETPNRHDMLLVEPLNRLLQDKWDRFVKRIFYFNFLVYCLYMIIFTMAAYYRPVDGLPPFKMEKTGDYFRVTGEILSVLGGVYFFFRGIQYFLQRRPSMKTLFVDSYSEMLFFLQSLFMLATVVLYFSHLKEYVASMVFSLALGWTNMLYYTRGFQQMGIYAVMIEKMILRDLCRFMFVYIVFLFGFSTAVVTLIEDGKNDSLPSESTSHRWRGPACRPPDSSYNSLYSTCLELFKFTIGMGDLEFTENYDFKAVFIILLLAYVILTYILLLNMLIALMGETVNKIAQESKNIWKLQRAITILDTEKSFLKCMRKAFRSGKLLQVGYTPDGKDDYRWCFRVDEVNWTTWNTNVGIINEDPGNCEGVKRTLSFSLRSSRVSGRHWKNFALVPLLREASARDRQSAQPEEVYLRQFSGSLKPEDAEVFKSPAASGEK
protocol_notes: Antagonist activity against human TRPV1 expressed in CHO cells assessed as inhibition of NADA-induced channel activation by FLIPR assay
Assay type: cell-based
pKi: −log10 of the molar value.
quantity_name: pKi

CC(C(=O)NCc1ccc(C(F)(F)F)nc1-c1ccc(F)cc1)c1ccc(NS(C)(=O)=O)c(F)c1 (stereo unspecified) = 9.08

* * *

Entries and their measured Ki follow.
study_target: Transient receptor potential cation channel subfamily V member 1 (Homo sapiens)
protocol_notes: Antagonist activity against human TRPV1 expressed in CHO cells assessed as inhibition of capsaicin-induced channel activation by FLIPR assay
Assay type: cell-based
quantity_name: Ki (nM)

CC(C(=O)NCc1ccc(C(F)(F)F)nc1-n1ccnc1)c1ccc(NS(C)(=O)=O)c(F)c1 (stereo not drawn) = 36.1
CC(C(=O)NCc1ccc(C(F)(F)F)nc1-c1cc2ccccc2s1)c1ccc(NS(C)(=O)=O)c(F)c1 (stereo not drawn) = 1
CC(C(=O)NCc1ccc(C(F)(F)F)nc1-c1ccsc1)c1ccc(NS(C)(=O)=O)c(F)c1 (stereo not drawn) = 2
COc1cc(OC)cc(-c2nc(C(F)(F)F)ccc2CNC(=O)C(C)c2ccc(NS(C)(=O)=O)c(F)c2)c1 (stereo not drawn) = 58
CC(C(=O)NCc1ccc(C(F)(F)F)nc1/C=C/c1ccccc1)c1ccc(NS(C)(=O)=O)c(F)c1 (stereo not drawn) = 2.2
CC(C(=O)NCc1ccc(C(F)(F)F)nc1Cc1ccccc1)c1ccc(NS(C)(=O)=O)c(F)c1 (stereo not drawn) = 141
CC(C(=O)NCc1ccc(C(F)(F)F)nc1-c1ccoc1)c1ccc(NS(C)(=O)=O)c(F)c1 (stereo not drawn) = 1.4
CC(C(=O)NCc1ccc(C(F)(F)F)nc1-c1ccco1)c1ccc(NS(C)(=O)=O)c(F)c1 (stereo not drawn) = 5.8
